# Method: survival after telomere uncapping, modulators, primary screen, cell-based (AID 1259312);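 also: virus expresses mutant telomerase RNA that uncaps telomeres and kills cells; compound added 2 days after infection so exposure lasts 3 days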
# Run conditions: HCT116 + Ad-hTR-mut, MTT, 5 d; at 10 µM
Hit rate of the full screen: of about 4,500 compounds, about 200 (4.4%) were called active.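 The calls were made as follows: active = cell survival measured by absorbance rises more than 2.5-fold over infected cells without compound; inactive = the rest.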 This excerpt belongs to a sample that is enriched for actives.
Write down one outcome, taken from 1 for active, -1 for inactive

* CC1CC(C)CN(S(=O)(=O)c2ccc(Cl)cc2)C1 (configuration not stated) | 1
* CCCCn1c(COc2ccc(Cl)cc2)n[nH]c1=S | -1
* Clc1cccc(N2CCN(Cn3nnc4ccccc43)CC2)c1 | 1
* CCC1CCCCN1S(=O)(=O)c1ccc(Cl)cc1 (configuration not stated) | -1
* CC1CCCN(S(=O)(=O)c2ccc(Cl)cc2)C1 (configuration not stated) | 1
* CC1CCN(S(=O)(=O)c2ccc(Cl)cc2)CC1 | -1
* Cc1[nH][nH]c(=O)c1C(c1ccncc1)C(C#N)C#N (configuration not stated) | 1
* COc1ccc(S(=O)(=O)N2CCN(C)CC2)cc1 | -1
* CCCCC(CC)C(=O)N(CC#N)CC#N (configuration not stated) | -1
* N#CC1=C(N)n2c(s/c(=C\c3ccc(Br)cc3)c2=O)=C(C#N)C1c1ccc(Br)cc1 (configuration not stated) | -1

stdin: Fill in: this test's call for c1ccc2c(c1)nnn2CN1CCN(c2ccc3c(c2)OCO3)CC1 is ___
stdout: -1

stdin: Fill in: this test's call for C(=C/c1ccccc1)/CN1CCN(Cn2nnc3ccccc32)CC1 is ___
stdout: -1
